For each entry below, report its protein stability index value.
B1: YPEL3 (parent)
chain: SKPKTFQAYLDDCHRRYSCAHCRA

Variants of: B1
procedure details: protein stability index of a GFP-peptide fusion (GPS, HEK-293T) (PSI 1-6); higher = more stable;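 further: lentivirally expressed fusions sorted by FACS into six bins by GFP to DsRed ratio, PSI derived from sequencing read proportions per bin multiplied by bin number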
test parameters: c terminus: a fixed tail appended
Answer with a bare number; do not write a unit.

For the variant `R16A` , report protein stability index.
1.76

For the variant `H14E` , report protein stability index.
1.56

For the variant `Y9H` , report protein stability index.
1.88

For the variant `C13L` , report protein stability index.
2.12

For the variant `A24D` , report protein stability index.
1.73

For the variant `C19R` , report protein stability index.
2.04

For the variant `Q7L` , report protein stability index.
1.76

For the variant `S1L` , report protein stability index.
3.27

For the variant `P3V` , report protein stability index.
2

For the variant `C19S` , report protein stability index.
2.87

For the variant `D12I` , report protein stability index.
2.22

For the variant `C19H` , report protein stability index.
2.96

For the variant `A24H` , report protein stability index.
1.85

For the variant `C13T` , report protein stability index.
2.01

For the variant `D12P` , report protein stability index.
2.57

For the variant `A24L` , report protein stability index.
1.87

For the variant `S1A` , report protein stability index.
2.11

For the variant `H14S` , report protein stability index.
2.06

For the variant `D11F` , report protein stability index.
3.03

For the variant `L10Q` , report protein stability index.
2.48

For the variant `R15G` , report protein stability index.
1.88

For the variant `Y17P` , report protein stability index.
1.93

For the variant `Y9L` , report protein stability index.
1.96

For the variant `Y17G` , report protein stability index.
2.02

For the variant `T5I` , report protein stability index.
2.75

For the variant `R15L` , report protein stability index.
2.01

For the variant `A8E` , report protein stability index.
1.92

For the variant `P3L` , report protein stability index.
2.13

For the variant `R16H` , report protein stability index.
2.3

For the variant `A20E` , report protein stability index.
1.46

For the variant `A8N` , report protein stability index.
2.49

For the variant `H14T` , report protein stability index.
1.8

For the variant `R16T` , report protein stability index.
2.46

For the variant `F6A` , report protein stability index.
2.95

For the variant `L10C` , report protein stability index.
3.6

For the variant `P3E` , report protein stability index.
2.31

For the variant `C13R` , report protein stability index.
2.19

For the variant `C13Y` , report protein stability index.
2.44

For the variant `R23A` , report protein stability index.
3.07

For the variant `A8F` , report protein stability index.
1.78

For the variant `A24I` , report protein stability index.
2

For the variant `L10K` , report protein stability index.
2.94

For the variant `H21V` , report protein stability index.
1.79

For the variant `S18L` , report protein stability index.
2.14

For the variant `Y9S` , report protein stability index.
1.4

For the variant `D12H` , report protein stability index.
2.35

For the variant `K2D` , report protein stability index.
2.89

For the variant `T5V` , report protein stability index.
2.05

For the variant `R23F` , report protein stability index.
2.61

For the variant `A8V` , report protein stability index.
2.23

For the variant `F6K` , report protein stability index.
3.23

For the variant `L10W` , report protein stability index.
2.05

For the variant `F6P` , report protein stability index.
2.96

For the variant `S1V` , report protein stability index.
1.38

For the variant `T5G` , report protein stability index.
2.11

For the variant `L10E` , report protein stability index.
3.4

For the variant `D11R` , report protein stability index.
1.9

For the variant `A8P` , report protein stability index.
2.62

For the variant `Q7A` , report protein stability index.
2.39

For the variant `A20L` , report protein stability index.
1.64

For the variant `F6E` , report protein stability index.
3.4

For the variant `T5Y` , report protein stability index.
1.97

For the variant `C19N` , report protein stability index.
3.42

For the variant `A8G` , report protein stability index.
1.91

For the variant `Y17H` , report protein stability index.
2.07

For the variant `H14Y` , report protein stability index.
1.56

For the variant `H14I` , report protein stability index.
2.05

For the variant `A8M` , report protein stability index.
1.66

For the variant `Y17E` , report protein stability index.
2.66

For the variant `R15W` , report protein stability index.
2.2

For the variant `C22D` , report protein stability index.
2.94

For the variant `D12V` , report protein stability index.
1.96

For the variant `Y9G` , report protein stability index.
2.85

For the variant `Y9T` , report protein stability index.
1.52

For the variant `R16V` , report protein stability index.
2.34

For the variant `S1H` , report protein stability index.
2.07

For the variant `P3M` , report protein stability index.
3.01

For the variant `S1K` , report protein stability index.
1.98

For the variant `D12F` , report protein stability index.
1.7

For the variant `T5C` , report protein stability index.
2.33

For the variant `D11Y` , report protein stability index.
1.72

For the variant `L10G` , report protein stability index.
2.79

For the variant `H21G` , report protein stability index.
1.28

For the variant `L10A` , report protein stability index.
2.54

For the variant `R23Q` , report protein stability index.
1.86

For the variant `A20H` , report protein stability index.
2.04

For the variant `D11L` , report protein stability index.
2.11

For the variant `S18T` , report protein stability index.
2.37

For the variant `Q7N` , report protein stability index.
2.04

For the variant `L10M` , report protein stability index.
1.75

For the variant `R16K` , report protein stability index.
1.73
